tgt: human IFN-α7 (human, UniProt P01567 24-189)
Sequence (P01567 24-189 limits assumed): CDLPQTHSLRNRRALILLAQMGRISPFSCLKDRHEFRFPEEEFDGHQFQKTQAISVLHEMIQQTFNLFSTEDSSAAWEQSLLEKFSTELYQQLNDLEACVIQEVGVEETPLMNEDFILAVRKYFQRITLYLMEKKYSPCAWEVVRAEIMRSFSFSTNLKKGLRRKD
methodSummary: cell-based or functional assay
measurementKind: IC 50 (ng/ml), ISRE dual luciferase reporter assay (ng/mL)
Give just the number in ng/mL; leave the unit off.

INPUT: Entry 26B9 (antibody, human IgG1, kappa, V domains shown, human-derived IgG1, kappa; also called MAB 26B9; hMAB 26B9) VH: QILLQESGPGLVKPTETLSLTCSVSGDSISDSSHYWAWIRQPPGKGPEWIGSVYFSSMTHYNPSLKSRVSISVDKPKNQFSLKVTSVTVADTATYYCARQALARVGAMNWFDPWGQGSLVTVSS VL: DIIMTQSPDSLPVSLGEGVTINCKSSQSVFFTSSNKSCLAWYQQKPGKSPKLLIYWASTRQSGVPDRFRGSGSGTDFSLTITSLQAEDVAVYFCQQCQTSPPTFGGGTRLEIKR has what IC 50 (ng/ml), ISRE dual luciferase reporter assay?
OUTPUT: 1.57

INPUT: What do you have for 50E11 (antibody, human IgG1, kappa, V domains shown) VH: QVQLVQSGAEMKKPGSSVKVSCKDFGGTFSVYGVNWVRQAPGQGLEWMGGLIPVIGPANYAQKFQGRITITADESTSTAYMELSSLRFDDTAIYYCVRDDNEYWGQGTLVTVSS VL: EMVLTQSPATLSLSPGERATLSCRASQTVSTFLAWYQQKPGQVPRLLVYDISSRANGTPARFSGGGSGTDFTLTISSLELEDFAVYYCQWRSNWPPSLTFGGGTRVEIKR ?
OUTPUT: 1.9

INPUT: // same read-out, input: 8H1 (antibody, human IgG1, kappa, V domains shown) VH: QVQLVQSGAEVKKPGASVKVSCKASGQTFTSDDINWVRQAPGQGLEWMGWRNPNTQDTGYAQKFHGRLTLTSNSSISTSYLELSGLRSEDTAVYYCARAGTSTLTGHYFALGVWGQGTTVIVSS VL: DIQLTQSPSSLSASVGDRVTITCQATQDISKYLNWYQQKPGKVPKLLIYETSNLEVGVPSRFSGSGSGTHFTLTISSLQAEDFATYYCQQYENFPFTFGGGTKVEIKR
OUTPUT: 0.9

INPUT: // same read-out, input: 12H5 (antibody, human IgG1, kappa, V domains shown) VH: QVQLIQSGPEVKRPGASVKVSCKASENTFDTHYINWVRQAPGQGLTWLGWLNPTTGKTGFPQKFKGRVILTSDTSLNTAYMEVSRLTSEDTAVYFCARVLKLSDEYNYGFDVWGQGTTVIVSS VL: DIQVTQSPSSLSASIGDRVTITCRASQNILTFINWYQHKPGKAPKLLIYAASVLQNEVPSRFSGSGSGTDFTLTITSLQPDDFGTYYCQQTYLTPQCSFGQGTKVEIKR
OUTPUT: 0.64
